The following compounds are shown together with reported Activity values.
- Test system: Receptor-type tyrosine-protein kinase FLT3 (Homo sapiens), P36888 [UNDEFINED MUTATION]
- Sequence (P36888 whole entry, looked up, change not shown): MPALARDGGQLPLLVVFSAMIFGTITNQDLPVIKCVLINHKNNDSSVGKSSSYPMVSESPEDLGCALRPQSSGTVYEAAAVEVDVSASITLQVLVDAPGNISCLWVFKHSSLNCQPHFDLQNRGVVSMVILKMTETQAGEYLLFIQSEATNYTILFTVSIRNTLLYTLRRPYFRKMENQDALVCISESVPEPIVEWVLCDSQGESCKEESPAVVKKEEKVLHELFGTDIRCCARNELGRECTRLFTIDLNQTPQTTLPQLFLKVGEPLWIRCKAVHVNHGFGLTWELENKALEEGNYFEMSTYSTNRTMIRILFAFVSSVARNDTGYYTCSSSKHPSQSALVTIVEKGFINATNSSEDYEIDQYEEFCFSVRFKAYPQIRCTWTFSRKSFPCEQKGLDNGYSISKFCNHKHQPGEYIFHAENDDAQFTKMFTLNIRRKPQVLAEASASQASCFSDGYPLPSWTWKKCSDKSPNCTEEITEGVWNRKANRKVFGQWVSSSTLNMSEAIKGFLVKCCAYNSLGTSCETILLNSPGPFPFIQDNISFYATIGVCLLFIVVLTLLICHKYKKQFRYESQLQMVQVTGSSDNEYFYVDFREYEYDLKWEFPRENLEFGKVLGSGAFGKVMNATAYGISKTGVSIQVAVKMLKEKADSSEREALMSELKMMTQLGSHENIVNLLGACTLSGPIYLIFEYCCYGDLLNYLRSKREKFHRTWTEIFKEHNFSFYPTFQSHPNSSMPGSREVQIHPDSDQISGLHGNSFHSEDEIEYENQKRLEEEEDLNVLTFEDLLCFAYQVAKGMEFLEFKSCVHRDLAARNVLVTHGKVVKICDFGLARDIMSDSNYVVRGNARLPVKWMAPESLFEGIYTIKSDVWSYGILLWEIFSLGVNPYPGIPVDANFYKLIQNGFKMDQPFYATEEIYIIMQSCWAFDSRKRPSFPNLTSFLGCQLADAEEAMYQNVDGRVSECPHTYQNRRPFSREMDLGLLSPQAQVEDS
- measurement notes: Inhibition of FLT3 ITD mutant in human MOLM13 cells assessed as residual activity at 100 nM relative to control
- Assay type: cell-based
- measurement conditions: MOLM-13
// units = %; emit number, no label

These solved cases illustrate the format of a correct answer.
CCN(CC)C(=O)/C=C/CN1CCc2cc(Nc3ncc(C)c(-c4cnn(C(C)C)c4)n3)ccc2C1 | 66
Cc1cnc(Nc2ccc3c(c2)CN(C(=O)/C=C/C(=O)c2ccccc2)CC3)nc1-c1cnn(C(C)C)c1 | 47
Cc1cnc(Nc2ccc3c(c2)CN(CCO)C3)nc1-c1cnn(C(C)C)c1 | 67
CC(C)n1cc(-c2nc(Nc3ccc4c(c3)CCN(CCCCO)C4)ncc2F)cn1 | 39

So what's the measured Activity for this one? Cc1cnc(Nc2ccc3c(c2)CCN(CCCO)C3)nc1-c1cnn(C(C)C)c1
62

----------
- measurement notes: AUC (0 to t) in Sprague-Dawley rat at 5 mg/kg, iv administered […] measured upto 24 hrs by LC/MS/MS analysis
- Type: ADME, organism-based
- Design: route intravenous, dose 5 mg/kg, time <=24
- measurement conditions: in vivo
observed property: AUC(0-t) at 24 h
# output: numeric value plus its unit

So what's the measured AUC(0-t) at 24 h for this one? Cc1cnc(Nc2ccc3c(c2)CCN(C(=O)/C=C/CN(C)C)C3)nc1-c1cnn(C(C)C)c1
988 ng·h/mL

----------
- measurement notes: Cmax in male Sprague-Dawley rat at 5 mg/kg, iv administered […] measured upto 24 hrs by LC/MS/MS analysis
- Type: ADME, organism-based
- Design: route intravenous, dose 5 mg/kg, time <=24
- measurement conditions: in vivo
observed property: Cmax (ng/mL)
// units = ng/mL; emit number, no label

So what's the measured Cmax for this one? Cc1cnc(Nc2ccc3c(c2)CCN(C(=O)/C=C/CN(C)C)C3)nc1-c1cnn(C(C)C)c1
479

----------
- tested target: UniProtKB P52333
- Sequence (P52333 whole entry): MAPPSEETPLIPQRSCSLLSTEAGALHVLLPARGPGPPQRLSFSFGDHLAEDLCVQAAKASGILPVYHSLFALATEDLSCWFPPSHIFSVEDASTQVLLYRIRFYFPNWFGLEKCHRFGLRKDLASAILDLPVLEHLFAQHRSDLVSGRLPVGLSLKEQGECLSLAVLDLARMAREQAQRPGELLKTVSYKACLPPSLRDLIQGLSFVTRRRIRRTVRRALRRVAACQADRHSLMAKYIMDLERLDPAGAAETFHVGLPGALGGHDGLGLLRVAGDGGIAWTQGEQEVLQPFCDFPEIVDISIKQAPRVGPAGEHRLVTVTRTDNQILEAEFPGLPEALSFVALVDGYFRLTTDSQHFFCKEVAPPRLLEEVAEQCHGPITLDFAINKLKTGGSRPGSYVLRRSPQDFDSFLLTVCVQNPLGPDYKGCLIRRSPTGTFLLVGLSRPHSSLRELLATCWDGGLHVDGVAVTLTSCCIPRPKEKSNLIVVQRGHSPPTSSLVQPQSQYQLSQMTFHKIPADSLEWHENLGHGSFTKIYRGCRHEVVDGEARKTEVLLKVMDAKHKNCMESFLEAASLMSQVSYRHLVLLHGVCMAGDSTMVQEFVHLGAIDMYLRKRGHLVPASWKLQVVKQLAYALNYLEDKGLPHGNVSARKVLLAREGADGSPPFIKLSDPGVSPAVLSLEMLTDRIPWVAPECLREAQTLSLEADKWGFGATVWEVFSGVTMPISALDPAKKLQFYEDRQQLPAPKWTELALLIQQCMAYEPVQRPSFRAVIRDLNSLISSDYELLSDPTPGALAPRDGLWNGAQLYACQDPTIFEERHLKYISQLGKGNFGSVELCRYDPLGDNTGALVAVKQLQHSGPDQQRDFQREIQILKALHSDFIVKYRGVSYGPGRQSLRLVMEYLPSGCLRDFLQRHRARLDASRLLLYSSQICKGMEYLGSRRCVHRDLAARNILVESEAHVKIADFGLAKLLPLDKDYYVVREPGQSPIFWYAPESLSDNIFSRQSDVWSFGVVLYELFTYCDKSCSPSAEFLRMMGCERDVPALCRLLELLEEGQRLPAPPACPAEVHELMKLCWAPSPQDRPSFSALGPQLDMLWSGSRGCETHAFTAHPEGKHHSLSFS
- measurement notes: Inhibition of recombinant human JAK3 (781 to end residues) using GGEEEEYFELVKKKK as substrate measured after 40 mins in presence of [gamm33P]ATP by scintillation counting method
observed property: pIC50
pIC50 (log units): -log10 of the concentration in mol/L.

These solved cases illustrate the format of a correct answer.
Cc1cnc(Nc2ccc3c(c2)CCN(C(=O)/C=C/C(=O)c2ccccc2)C3)nc1-c1cnn(C(C)C)c1 | 6.92
Cc1ccc(C(=O)/C=C/C(=O)N2CCc3ccc(Nc4ncc(C)c(-c5cnn(C(C)C)c5)n4)cc3C2)cc1 | 7.55
COC(=O)/C=C/CN1CCc2cc(Nc3ncc(C)c(-c4cnn(C(C)C)c4)n3)ccc2C1 | 7.11
Cc1cnc(Nc2ccc3c(c2)CCN(CC#N)C3)nc1-c1cnn(C(C)C)c1 | 7.27
Cc1cnc(Nc2ccc3c(c2)CN(C(=O)/C=C/C(=O)c2ccccc2)CC3)nc1-c1cnn(C(C)C)c1 | 7.05
Cc1cnc(Nc2ccc3c(c2)CCN(C(=O)/C=C/CN(C)C)C3)nc1-c1cnn(C(C)C)c1 | 7.03
Cc1cnc(Nc2ccc3c(c2)CN(C(=O)/C=C/CN(C)C)CC3)nc1-c1cnn(C(C)C)c1 | 6.83

Here is another compound to look at.
So what's the measured pIC50 for this one? Cc1ccc(C(=O)/C=C/C(=O)N2CCc3cc(Nc4ncc(C)c(-c5cnn(C(C)C)c5)n4)ccc3C2)cc1
7.30

----------
- measurement notes: Elimination half life in male Sprague-Dawley rat at 5 mg/kg, po administered via gavage measured upto 24 hrs by LC/MS/MS analysis
- Assay type: ADME, organism-based
- measurement conditions: in vivo, read-out: beta t1/2 (converted)
observed property: half-life (h)
// units = h; emit number, no label

So what's the measured half-life for this one? Cc1cnc(Nc2ccc3c(c2)CCN(C(=O)/C=C/CN(C)C)C3)nc1-c1cnn(C(C)C)c1
1.8

----------
- measurement notes: Selectivity index, ratio of IC50 for inhibition of recombinant human TYK2 (875 to end residues) to IC50 for inhibition of recombinant human JAK2 (808 to end residues)
The following molecules are shown together with reported Ratio IC50 values.
# print the numeric value only

These solved cases illustrate the format of a correct answer.
Cc1cnc(Nc2ccc3c(c2)CN(C(=O)/C=C/CN(C)C)CC3)nc1-c1cnn(C(C)C)c1 | 5
Cc1cnc(Nc2ccc3c(c2)CCN(C(=O)/C=C/CN(C)C)C3)nc1-c1cnn(C(C)C)c1 | 25
Cc1cnc(Nc2ccc3c(c2)CCN(CC#N)C3)nc1-c1cnn(C(C)C)c1 | 8
Cc1cnc(Nc2ccc3c(c2)CN(C(=O)/C=C/C(=O)c2ccccc2)CC3)nc1-c1cnn(C(C)C)c1 | 26
COC(=O)/C=C/CN1CCc2cc(Nc3ncc(C)c(-c4cnn(C(C)C)c4)n3)ccc2C1 | 44

So what's the measured Ratio IC50 for this one? Cc1ccc(C(=O)/C=C/C(=O)N2CCc3cc(Nc4ncc(C)c(-c5cnn(C(C)C)c5)n4)ccc3C2)cc1
33.3

So what's the measured Ratio IC50 for this one? Cc1cnc(Nc2ccc3c(c2)CCN(C(=O)/C=C/C(=O)c2ccccc2)C3)nc1-c1cnn(C(C)C)c1
7.9

----------
- measurement notes: AUC (0 to t) in Sprague-Dawley rat at 5 mg/kg, po administered via gavage measured upto 24 hrs by LC/MS/MS analysis
- Assay type: ADME, organism-based
- Parameters: route oral, dose 5 mg/kg, time <=24
- measurement conditions: in vivo
observed property: AUC(0-t) at 24 h (ng·h/mL)
// units = ng·h/mL; emit number, no label

So what's the measured AUC(0-t) at 24 h for this one? Cc1cnc(Nc2ccc3c(c2)CCN(C(=O)/C=C/CN(C)C)C3)nc1-c1cnn(C(C)C)c1
254

----------
- measurement notes: Tmax in male Sprague-Dawley rat at 5 mg/kg, iv administered […] measured upto 24 hrs by LC/MS/MS analysis
- Format: ADME, organism-based
- measurement conditions: in vivo
observed property: Tmax (min)
// units = min; emit number, no label

So what's the measured Tmax for this one? Cc1cnc(Nc2ccc3c(c2)CCN(C(=O)/C=C/CN(C)C)C3)nc1-c1cnn(C(C)C)c1
4.8

----------
- Organism: Homo sapiens
- measurement notes: Selectivity index, ratio of IC50 for inhibition of FLT3 ITD mutant in human MOLM13 cells to IC50 for inhibition of JAK2 V617F mutant in human SET-2 cells
- Format: cell-based
Each entry falls into one class according to its Ratio IC50; the ranges are bin A = under 1, bin B = from 1 up to 4, bin C = 4 and over

Worked cases, answers included:
Cc1ccc(C(=O)/C=C/C(=O)N2CCc3cc(Nc4ncc(C)c(-c5cnn(C(C)C)c5)n4)ccc3C2)cc1 | bin C
Cc1cnc(Nc2ccc3c(c2)CCN(C(=O)CCCN(C)C)C3)nc1-c1cnn(C(C)C)c1 | bin B
Cc1cnc(Nc2ccc3c(c2)CN(C(=O)/C=C/CN(C)C)CC3)nc1-c1cnn(C(C)C)c1 | bin C

Which bin should I file Cc1cnc(Nc2ccc3c(c2)CCN(C/C=C/C(=O)O)C3)nc1-c1cnn(C(C)C)c1 under?
bin B

Which bin should I file Cc1cnc(Nc2ccc3c(c2)CCN(C(=O)Nc2cccc(Cl)c2)C3)nc1-c1cnn(C(C)C)c1 under?
bin A

Which bin should I file CCOCCN1CCc2cc(Nc3ncc(C)c(-c4cnn(C(C)C)c4)n3)ccc2C1 under?
bin B

Which bin should I file Cc1cnc(Nc2ccc3c(c2)CN(C(=O)/C=C/C(=O)c2ccccc2)CC3)nc1-c1cnn(C(C)C)c1 under?
bin C

Which bin should I file CC(C)n1cc(-c2nc(Nc3ccc4c(c3)CCN(CCCCCO)C4)ncc2F)cn1 under?
bin A

Which bin should I file Cc1cnc(Nc2ccc3c(c2)CCN(C(=O)/C=C/CN(C)C)C3)nc1-c1cnn(C(C)C)c1 under?
bin C
